- System: NCI-H2085
- Test Protocol: relative viability (nuclei count vs DMSO), 5 days (fraction); higher = more cells survive
- Test Conditions: first compound 2 µM
# relative viability per record follows
Metric: relative viability

Compound: COCC1(CO)C(=O)C2CCN1CC2 (configuration not stated) [PRIMA-1MET] + Cc1nc(NC(=O)N2CCC[C@H]2C(N)=O)sc1-c1ccnc(C(C)(C)C(F)(F)F)c1 [Alpelisib] (partner 2 µM)
Result: 0.962

Compound: COCC1(CO)C(=O)C2CCN1CC2 (configuration not stated) [PRIMA-1MET] + Cc1nc(Nc2ncc(C(=O)Nc3c(C)cccc3Cl)s2)cc(N2CCN(CCO)CC2)n1 [Dasatinib] (partner 0.075 µM)
Result: 0.249

Compound: COCC1(CO)C(=O)C2CCN1CC2 (configuration not stated) [PRIMA-1MET] + O=C(c1cc(Cc2n[nH]c(=O)c3ccccc23)ccc1F)N1CCN(C(=O)C2CC2)CC1 [Olaparib] (partner 8 µM)
Result: 0.805

Compound: COCC1(CO)C(=O)C2CCN1CC2 (configuration not stated) [PRIMA-1MET] + CC(C)C[C@H](NC(=O)[C@H](Cc1ccccc1)NC(=O)c1cnccn1)B(O)O [Bortezomib] (partner 0.002 µM)
Result: 0.856

Compound: COCC1(CO)C(=O)C2CCN1CC2 (configuration not stated) [PRIMA-1MET] + O=C(CCCCCCC(=O)Nc1ccccc1)NO [Vorinostat] (partner 1 µM)
Result: 0.706

Compound: COCC1(CO)C(=O)C2CCN1CC2 (configuration not stated) [PRIMA-1MET] + C[C@]1(O)C[C@@H](c2nc(-c3ccc4ccc(-c5ccccc5)nc4c3)c3c(N)nccn32)C1 [Linsitinib] (partner 1 µM)
Result: 0.866

Compound: COCC1(CO)C(=O)C2CCN1CC2 (configuration not stated) [PRIMA-1MET] + CS(=O)(=O)N1CCN(Cc2cc3nc(-c4cccc5[nH]ncc45)nc(N4CCOCC4)c3s2)CC1 [Pictilisib] (partner 1 µM)
Result: 0.33
